Target: T1, GIPR-ECD-laFc (an alpaca Fc-fused human GIPR extracellular region fragment) (human, UniProt P48546 22-138)
T1 construct: extracellular domain; not shown: alpaca Fc
T1 sequence (looked up): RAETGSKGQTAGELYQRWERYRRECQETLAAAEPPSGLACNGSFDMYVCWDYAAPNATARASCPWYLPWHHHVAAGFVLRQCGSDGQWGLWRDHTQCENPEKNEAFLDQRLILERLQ
Assay: phage supernatant ELISA, coated antigen, anti-HA HRP, A450-A650

Binder | OD value [OD]
iGI-27 (VHH, Tested as supernatant of a helper-phage-rescued clone (pComb3XSS), detected by anti-HA tag) VHH: QVQLVESGGALVQTGGSLRLFCAASGDTICITNMNWYRQAPGKGREFVAAITRSGRTLYADYVKGRFTISRDNARNTMSLQMNSMTSEDTAVYYCNADQNQTICAAEPSAWGRGTQVTVSS | 2.23
iGI-1198 (VHH, Tested as supernatant of a helper-phage-rescued clone (pComb3XSS), detected by anti-HA tag) VHH: QVQLQESGGGLVQPGGSLRLSCVASGSGFSIVAMGWYRQTPGKQRELVAAITSGGNTNYADSVKGRFTISRDNAKNTIYLQMNSLKPEDTAVYYCNADPGVVAGPYAGMDFWGKGTQVTVSS | 1.95
iGI-44 (VHH, Tested as supernatant of a helper-phage-rescued clone (pComb3XSS), detected by anti-HA tag) VHH: QVQLVESGGGLVQAGGSLKLSCAASGRTFSSKAMGWFRQAPGKEREFVAAINWSGDRTYHVNSIKGRFTISRDNAKNTVYLQMNSLKPEDTAVYYCTADRRDRATIPFQWHYWGQGTQVTVSS | 2.31
iGI-72 (VHH, Tested as supernatant of a helper-phage-rescued clone (pComb3XSS), detected by anti-HA tag) VHH: QVQLVESGGGLVQPGGSLRLSCAASRYTLDYYAIGWFRQAPGKEREGVSCINSKDGSTYYADSVKGRFTISKDNAKNTVYLQMNSLKPEDTAVYYCAAGYDPWSGIPPVQAMCVMGYDYWGQGTQVTVSS | 2.2
iGI-51 (VHH, Tested as supernatant of a helper-phage-rescued clone (pComb3XSS), detected by anti-HA tag) VHH: QVQLVESGGKLVQAGGSLRLDCVASGRTFSYYAIGWYRQAPGKEREFVAAIRASGGSTYYADSVKGRFTASRDNAKNTGYLQMNSLKPEDTAVYFCYAATIVPITPSTHGYWGQGTQVTVSS | 2.17
iGI-9 (VHH, Tested as supernatant of a helper-phage-rescued clone (pComb3XSS), detected by anti-HA tag) VHH: QVQLVESGGGLVQPGGSLRLSCETSKILFSSAYTMGWYRQAPGKQRELVATITTDYITNYVDSVKGRFTISRDNAKNTVYLQMNTLKLEDTAVYYCNARWGRDYWGQGTQVTVSS | 2.21
